Cited source: PubChem BioAssay

# studyTarget: Torsin-1A-interacting protein 2 (Homo sapiens) (UniProt Q8NFQ8)
# Sequence (Q8NFQ8 whole entry, looked up): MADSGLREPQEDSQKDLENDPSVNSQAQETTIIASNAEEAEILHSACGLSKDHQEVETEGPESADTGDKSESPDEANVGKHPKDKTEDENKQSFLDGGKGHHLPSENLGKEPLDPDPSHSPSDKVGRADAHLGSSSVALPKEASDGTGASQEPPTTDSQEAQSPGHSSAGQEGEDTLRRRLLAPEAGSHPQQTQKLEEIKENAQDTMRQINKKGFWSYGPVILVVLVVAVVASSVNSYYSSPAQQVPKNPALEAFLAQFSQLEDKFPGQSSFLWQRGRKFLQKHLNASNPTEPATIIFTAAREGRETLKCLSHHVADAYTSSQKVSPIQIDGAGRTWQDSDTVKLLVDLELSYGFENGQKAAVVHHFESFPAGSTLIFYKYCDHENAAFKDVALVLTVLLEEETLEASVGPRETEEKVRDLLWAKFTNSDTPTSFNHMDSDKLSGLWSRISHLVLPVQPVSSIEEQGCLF
# testProtocol: small molecules binding lysate-expressed LULL1 – cell lysate, human LULL1 lysate, 635/667 nm fluorescence, primary screen (AID 1092);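 note: probe is lysate of COS7 cells overexpressing human LULL1; score merges per-feature 667 nm fluorescence with signal-to-noise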
# conditionSet: small-molecule microarray, hLULL1 lysate binding, 635 nm fluorescence; higher = more signal
recordedEndpoint: composite z-score
Reply: number alone, nothing else.

COc1ccccc1CN1C(=O)c2ccccc2[C@](Cc2ccccc2I)(C(=O)O)[C@@H]1c1ccc(CO)cc1 = 2.45
CC1=C2[C@@H](CCc3ccccc3)OB(O)C[C@@H]2[C@@H]2C(=O)N(C)C(=O)[C@@H]2C1 = 0.299
COCCOC(=O)N1C(=O)[C@@]2(c3cc(C#CC4=CCCCC4)ccc31)[C@H](c1ccccc1OCCO)N1[C@H](c3ccccc3)[C@H](c3ccccc3)OC(=O)[C@H]1[C@@H]2C(=O)NC[C@H](O)c1ccccc1 = 2.54
CS(=O)(=O)CCOC(=O)C1=CC(c2ccc(CO)cc2)=CC(C2CC2)N(Cc2sc3ccccc3c2Cl)C=C1C(=O)OCCS(C)(=O)=O (stereo unspecified) = 1.67
COC(=O)[C@@]1(Cc2ccc(OC)cc2)[C@H]2c3cc(C(=O)N(C)C)n(Cc4ccc(C)o4)c3C[C@H]2CN1C(=O)c1ccccc1 = 3.6
CCC1=C2CN(Cc3ccccc3)[C@@H](C(=O)Cc3ccccc3)C2C=CCC1 (stereo partly specified) = 2.47
CC(CO)N1C(=O)[C@@H]2[C@H]3C(=O)OCC=C[C@H]3OC23C=CCN(Cn2nnc4ccccc42)C(=O)[C@@H]13 (stereo partly specified) = -0.444
CCOC(=O)[C@@H]1CCCCN1C(=O)C(=O)OC = 0.377
Oc1ccc2cc[n+](Cc3cc4c(cc3Br)OCO4)cc2c1 = -0.252
[N-]=[N+]=Nc1ccccc1C[C@@]1(C(=O)N2CCOCC2)N=C(c2ccc(OCCCO)cc2)O[C@@H]1c1ccccc1 = 3.38

Given the molecule CCCC=C(CCC)[C@@H](NS(=O)(=O)CC12CCC(CC1=O)C2(C)C)c1ccc(C(=O)OC)cc1 (stereo partly specified) and test system Torsin-1A-interacting protein 2 (Homo sapiens) (UniProt Q8NFQ8), the measured composite z-score is 3.78

Form field composite z-score for item C=CC[C@]1(C(=O)N2CCOCC2)COC(c2ccc(OCCCO)cc2)=N1 on Torsin-1A-interacting protein 2 (Homo sapiens) (UniProt Q8NFQ8): 4.02

composite z-score on Torsin-1A-interacting protein 2 (Homo sapiens) (UniProt Q8NFQ8) for COc1cc2c(cc1O)C(C1CC1)N(C)CC2 (stereo unspecified) is 0.0629

Query C=C(/C(=C/C[C@H](OC(=O)c1ccncc1)c1ccc(CO)o1)c1cnc2ccccc2c1)C(C)C on Torsin-1A-interacting protein 2 (Homo sapiens) (UniProt Q8NFQ8); composite z-score returned: 0.947
